Assay System: T1, human GIP receptor (human, UniProt P48546 22-466)
T1 sequence (looked up): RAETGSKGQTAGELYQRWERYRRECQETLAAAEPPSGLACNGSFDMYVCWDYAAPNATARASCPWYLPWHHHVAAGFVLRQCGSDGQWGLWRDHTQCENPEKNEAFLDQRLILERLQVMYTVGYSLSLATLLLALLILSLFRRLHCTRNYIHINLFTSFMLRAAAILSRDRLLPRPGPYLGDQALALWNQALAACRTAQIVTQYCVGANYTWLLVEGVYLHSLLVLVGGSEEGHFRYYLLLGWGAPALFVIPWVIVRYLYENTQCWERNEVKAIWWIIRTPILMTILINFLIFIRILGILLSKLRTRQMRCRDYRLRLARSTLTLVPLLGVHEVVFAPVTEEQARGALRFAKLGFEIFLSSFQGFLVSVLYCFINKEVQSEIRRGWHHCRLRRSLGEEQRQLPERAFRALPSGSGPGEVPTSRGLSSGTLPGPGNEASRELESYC
Experiment Summary: cell-based or functional assay
Bridges are numbered along the chain shown (N, C = ends). Where no end group is shown, it is not given here. [ ]: non-standard residue; d: D form. The star is where a group is joined. Acetyl(2-(4-imidazolyl)) = O=C(Cc1c[nH]cn1)*; Aib = CC(C)(N)C(=O)O
Hi! Could you tag entries with In vitro activity (%) vs. GIP, cAMP EC50 below 2% as True, and those at or above as False? Much appreciated.

Use the examples below as a reference point.
H[Aib]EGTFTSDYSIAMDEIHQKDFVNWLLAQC (bridge 16-20) [triple agonist of SEQ ID NO: 53] ... True
Y[Aib]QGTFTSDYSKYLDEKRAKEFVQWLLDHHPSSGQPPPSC (bridge 16-20) [triple agonist of SEQ ID NO: 42] ... False
Y[Aib]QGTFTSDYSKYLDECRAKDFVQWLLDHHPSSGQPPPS (bridge 16-20; ends not checked) [triple agonist of SEQ ID NO: 66] ... False

### Prompt Dear reviewer, please state whether Y[Aib]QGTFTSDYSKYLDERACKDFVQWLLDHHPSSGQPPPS (bridge 16-20; ends not checked) [triple agonist of SEQ ID NO: 71] has In vitro activity (%) vs. GIP, cAMP EC50 strictly beneath 2%.
### Response False

### Prompt Dear reviewer, please state whether [Acetyl(2-(4-imidazolyl))]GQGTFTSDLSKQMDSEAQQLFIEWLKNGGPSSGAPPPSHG [triple agonist of SEQ ID NO: 16] has In vitro activity (%) vs. GIP, cAMP EC50 strictly beneath 2%.
### Response True

### Prompt Dear reviewer, please state whether H[Aib]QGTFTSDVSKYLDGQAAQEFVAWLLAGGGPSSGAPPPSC [triple agonist of SEQ ID NO: 10] has In vitro activity (%) vs. GIP, cAMP EC50 strictly beneath 2%.
### Response True

### Prompt Dear reviewer, please state whether H[Aib]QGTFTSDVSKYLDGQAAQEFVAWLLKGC [triple agonist of SEQ ID NO: 8] has In vitro activity (%) vs. GIP, cAMP EC50 strictly beneath 2%.
### Response True

### Prompt Dear reviewer, please state whether H[Aib]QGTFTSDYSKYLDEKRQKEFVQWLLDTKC (bridge 16-20) [triple agonist of SEQ ID NO: 78] has In vitro activity (%) vs. GIP, cAMP EC50 strictly beneath 2%.
### Response True

### Prompt Dear reviewer, please state whether H[Aib]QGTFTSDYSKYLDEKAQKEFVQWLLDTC (bridge 16-20) [triple agonist of SEQ ID NO: 30] has In vitro activity (%) vs. GIP, cAMP EC50 strictly beneath 2%.
### Response True

### Prompt Dear reviewer, please state whether H[Aib]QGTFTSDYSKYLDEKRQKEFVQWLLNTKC (bridge 16-20; ends not checked) [triple agonist of SEQ ID NO: 58] has In vitro activity (%) vs. GIP, cAMP EC50 strictly beneath 2%.
### Response True

### Prompt Dear reviewer, please state whether H[Aib]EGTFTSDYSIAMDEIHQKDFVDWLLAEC (bridge 16-20; ends not checked) [triple agonist of SEQ ID NO: 54] has In vitro activity (%) vs. GIP, cAMP EC50 strictly beneath 2%.
### Response True

### Prompt Dear reviewer, please state whether [Acetyl(2-(4-imidazolyl))]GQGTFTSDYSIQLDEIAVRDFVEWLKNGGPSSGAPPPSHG [triple agonist of SEQ ID NO: 14] has In vitro activity (%) vs. GIP, cAMP EC50 strictly beneath 2%.
### Response True

### Prompt Dear reviewer, please state whether Y[Aib]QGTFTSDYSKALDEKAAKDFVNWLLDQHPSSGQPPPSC (bridge 16-20; ends not checked) [triple agonist of SEQ ID NO: 102] has In vitro activity (%) vs. GIP, cAMP EC50 strictly beneath 2%.
### Response False

### Prompt Dear reviewer, please state whether {Acetyl(2-(4-imidazolyl))}-[Aib]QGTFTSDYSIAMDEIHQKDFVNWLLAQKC (bridge 15-19) [triple agonist of SEQ ID NO: 92] has In vitro activity (%) vs. GIP, cAMP EC50 strictly beneath 2%.
### Response True

### Prompt Dear reviewer, please state whether [Acetyl(2-(4-imidazolyl))][Aib]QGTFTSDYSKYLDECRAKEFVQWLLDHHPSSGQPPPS (bridge 16-20; ends not checked) [triple agonist of SEQ ID NO: 73] has In vitro activity (%) vs. GIP, cAMP EC50 strictly beneath 2%.
### Response False

### Prompt Dear reviewer, please state whether H[Aib]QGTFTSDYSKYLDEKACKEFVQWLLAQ (bridge 16-20) [triple agonist of SEQ ID NO: 31] has In vitro activity (%) vs. GIP, cAMP EC50 strictly beneath 2%.
### Response False

### Prompt Dear reviewer, please state whether H[Aib]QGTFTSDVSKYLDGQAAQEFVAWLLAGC [triple agonist of SEQ ID NO: 9] has In vitro activity (%) vs. GIP, cAMP EC50 strictly beneath 2%.
### Response True

### Prompt Dear reviewer, please state whether H[Aib]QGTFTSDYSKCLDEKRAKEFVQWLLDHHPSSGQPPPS (bridge 16-20; ends not checked) [triple agonist of SEQ ID NO: 65] has In vitro activity (%) vs. GIP, cAMP EC50 strictly beneath 2%.
### Response False

### Prompt Dear reviewer, please state whether {Acetyl(2-(4-imidazolyl))}-[Aib]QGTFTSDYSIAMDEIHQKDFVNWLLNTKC (bridge 15-19) [triple agonist of SEQ ID NO: 94] has In vitro activity (%) vs. GIP, cAMP EC50 strictly beneath 2%.
### Response True

### Prompt Dear reviewer, please state whether {Acetyl(2-(4-imidazolyl))}-[Aib]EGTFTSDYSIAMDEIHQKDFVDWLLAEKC (bridge 15-19) [triple agonist of SEQ ID NO: 91] has In vitro activity (%) vs. GIP, cAMP EC50 strictly beneath 2%.
### Response True

### Prompt Dear reviewer, please state whether {Acetyl(2-(4-imidazolyl))}-[Aib]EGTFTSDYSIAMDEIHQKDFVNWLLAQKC (bridge 15-19) [triple agonist of SEQ ID NO: 90] has In vitro activity (%) vs. GIP, cAMP EC50 strictly beneath 2%.
### Response True
